test system: Lolium; experiment: Herbicidal post-emergence action, greenhouse; type: in vivo; conditions: 320 g of a.i./ha, greenhouse (T22-T24)
measurementKind: herbicidal effect, Lolium (%)
Dear colleague, please return just the value in %, with no unit written.

Problem: Bench note: what herbicidal effect, Lolium did CCc1cc(C)cc(Br)c1C1=C(OC(=O)C(C)C)C(C)(C)NC1=O show?
Result: 100

Problem: Could you tell me which herbicidal effect, Lolium is on file for CCOC(=O)OC1=C(c2c(Br)cc(C)cc2CC)C(=O)N(CC)C1C (centres unmarked) ?
Result: 90

Problem: Any idea what herbicidal effect, Lolium was measured for CCOC(=O)OC1=C(c2c(Br)cc(C)cc2CC)C(=O)N(C)C1CC (centres unmarked) ?
Result: 90

Problem: Value lookup for herbicidal effect, Lolium; key = CCc1cc(C)cc(Br)c1C1=C(O)C(CC)N(C)C1=O (centres unmarked)
Result: 100

Problem: Dear colleague, I am looking for the recorded herbicidal effect, Lolium of the following compound: CCc1cc(C)cc(Br)c1C1=C(O)CN(C2CC2)C1=O
Result: 100

Problem: Look at this compound and give its reported herbicidal effect, Lolium. CCc1cc(C)cc(Br)c1C1=C(O)C2CCCN2C1=O (centres unmarked)
Result: 100

Problem: Could you share which herbicidal effect, Lolium value was measured for CCc1cc(C)cc(Br)c1C1=C(OC(=O)C(C)(C)C)C2CCCN2C1=O (centres unmarked) ?
Result: 90

Problem: Would you kindly share the measured herbicidal effect, Lolium for CCc1cc(C)cc(Br)c1C1=C(O)C(C)N(CC)C1=O (centres unmarked) ?
Result: 90

----------
Tested on: Setaria
Experiment: Herbicidal post-emergence action, greenhouse
Type: in vivo
Conditions: 320 g of a.i./ha, greenhouse (T22-T24)
Procedure: Herbicidal Post-Emergence Action Seeds of monocotyledonous and dicotyledonous weed and crop plants are placed into sandy loam in wood fibre pots, covered with soil and cultivated in a greenhouse under good growth conditions. 2-3 weeks after sowing, the test plants are treated at the one-leaf stage. […]
Hi there, I'd appreciate the recorded herbicidal effect, Setaria for every entry that follows.
Express it in %; write the number only.

Problem: Give its herbicidal effect, Setaria value. Item: CCc1cc(C)cc(Br)c1C1=C(O)C2CCCN2C1=O (centres unmarked)
Result: 90

Problem: Which value of herbicidal effect, Setaria has been reported for CCc1cc(C)cc(Br)c1C1=C(OC(=O)C(C)(C)C)C2CCCN2C1=O (centres unmarked) in the records?
Result: 90

Problem: Consider the molecule shown here: CCc1cc(C)cc(Br)c1C1=C(O)CN(C2CC2)C1=O What is its recorded herbicidal effect, Setaria?
Result: 100

Problem: So what does the record say about herbicidal effect, Setaria for CCc1cc(C)cc(Br)c1C1=C(O)C(C)N(CC)C1=O (centres unmarked) ?
Result: 100

Problem: # lookup: herbicidal effect, Setaria of CCc1cc(C)cc(Br)c1C1=C(O)C(CC)N(C)C1=O (centres unmarked)
Result: 100

Problem: Record request: herbicidal effect, Setaria value, item CCc1cc(C)cc(Br)c1C1=C(OC(=O)C(C)C)C(C)(C)NC1=O
Result: 100

Problem: What measured herbicidal effect, Setaria goes with CCOC(=O)OC1=C(c2c(Br)cc(C)cc2CC)C(=O)N(C)C1CC (centres unmarked) ?
Result: 100

Problem: Name the recorded herbicidal effect, Setaria for CCOC(=O)OC1=C(c2c(Br)cc(C)cc2CC)C(=O)N(CC)C1C (centres unmarked) .
Result: 100

----------
tested on: Setaria; experiment: Herbicidal post-emergence action, greenhouse; assay type: in vivo; details: 320 g of a.i./ha, greenhouse, second series (T25-T28)
measurementKind: herbicidal effect, Setaria (%)
Give just the number in %; leave the unit off.

Problem: Could you tell me which herbicidal effect, Setaria is on file for CCc1cc(C)cc(Br)c1C1=C(OC(=O)C(C)(C)C)C2CCCN2C1=O (stereo not shown) [I-b-1] ?
Result: 100

Problem: Could you tell me which herbicidal effect, Setaria is on file for CCOC(=O)OC1=C(c2c(Br)cc(C)cc2CC)C(=O)N(C)C1CC (stereo not shown) [I-c-6] ?
Result: 80

Problem: Consider the compound shown here: CCc1cc(C)cc(Br)c1C1=C(O)CN(C2CC2)C1=O [I-a-7] What is its recorded herbicidal effect, Setaria?
Result: 80

Problem: Value lookup for herbicidal effect, Setaria; key = CCc1cc(C)cc(Br)c1C1=C(O)C2CCCN2C1=O (stereo not shown) [I-a-1]
Result: 90

Where do these numbers come from? They come from patent US20070225170A1.
